# credit: paper PMC9688318

- Target system: T1, PPR2.0 t5 (synthetic)
- T1 chain: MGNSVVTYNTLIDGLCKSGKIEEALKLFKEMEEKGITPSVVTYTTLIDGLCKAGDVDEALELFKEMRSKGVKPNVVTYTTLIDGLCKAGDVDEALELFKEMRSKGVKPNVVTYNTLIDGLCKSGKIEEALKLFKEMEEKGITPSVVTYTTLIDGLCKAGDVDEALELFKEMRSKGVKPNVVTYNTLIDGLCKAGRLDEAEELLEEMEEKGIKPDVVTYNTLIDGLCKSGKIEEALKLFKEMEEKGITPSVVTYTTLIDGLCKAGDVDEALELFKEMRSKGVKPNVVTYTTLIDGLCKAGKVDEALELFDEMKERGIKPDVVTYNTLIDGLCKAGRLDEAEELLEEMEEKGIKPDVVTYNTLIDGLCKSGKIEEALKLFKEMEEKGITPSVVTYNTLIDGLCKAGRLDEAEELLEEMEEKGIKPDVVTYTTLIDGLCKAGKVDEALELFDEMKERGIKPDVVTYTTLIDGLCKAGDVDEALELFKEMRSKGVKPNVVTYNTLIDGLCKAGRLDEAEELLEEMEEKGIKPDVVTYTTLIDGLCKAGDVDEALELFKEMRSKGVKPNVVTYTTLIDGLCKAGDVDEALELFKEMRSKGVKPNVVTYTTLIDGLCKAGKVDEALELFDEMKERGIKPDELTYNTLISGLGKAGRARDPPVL
- Run description: EMSA; 20 mM Tris-HCl pH 8.0, 150 mM NaCl, 0.5% NP-40, 1 mM DTT, 1 mM EDTA; 20 nM RNA
- Run parameters: tags: N-terminal SBP, C-terminal His6, kept; label: biotin
Property name: Kd (nM)
The answer is to be given in nM; state only the numeric part.

(Q) // lookup Kd for GACAUGCCAACAUCAGUCUGAUAAGGACUG (ssRNA) [Probe_t5]
(A) 167
